details: in n-propanol, 308.15 K
observable: solubility (mole fraction)
Form rule: numeric answer, no unit written next to it.

Given COC(=O)Nc1nc2ccccc2[nH]1 , respond with its solubility (mole fraction). 4.04e-05

###

conditions: in n-propanol, 278.15 K
observable: solubility (mole fraction)
Form rule: numeric answer, no unit written next to it.

Given COC(=O)Nc1nc2ccccc2[nH]1 , respond with its solubility (mole fraction). 3.28e-06

###

conditions: in n-propanol, 288.15 K
observable: solubility (mole fraction)
Form rule: numeric answer, no unit written next to it.

Given COC(=O)Nc1nc2ccccc2[nH]1 , respond with its solubility (mole fraction). 8.18e-06

###

conditions: in ethanol, 313.15 K
observable: solubility (mole fraction)
Form rule: numeric answer, no unit written next to it.

Given COC(=O)Nc1nc2ccccc2[nH]1 , respond with its solubility (mole fraction). 7.63e-05

###

settings: in n-propanol, 303.15 K
observable: solubility (mole fraction)
Form rule: numeric answer, no unit written next to it.

Given COC(=O)Nc1nc2ccccc2[nH]1 , respond with its solubility (mole fraction). 2.73e-05
